Tested on: NQO1 activation in BEAS-2B cells
method: BEAS-2B cellular MTT assay of NQO1 activation, 0% HSA
Assay type: cell-based
measurement_parameters: Homo sapiens, serum free, read-out: BEAS EC50 (nM) serum free
value_type: EC50 (nM)
Your answer is read as nM, so omit the unit and give the number.

Some molecules with recorded EC50:
For O=C(O)CC1c2cnc(nc2)OCCCCCc2ccc(c(Cl)c2)C(=O)N2CCc3ccc1cc3C2 (stereo not drawn) , what is its reported EC50? 1430

Fill in the blank: the reported EC50 of O=C(O)CC1c2ccc(nc2)OCCCCOc2ccc(cc2)C(=O)N2CCc3ccc1cc3C2 (stereo not drawn) is ____. 829

In the following, a different molecule is considered.
May I ask what EC50 has been recorded for `Cc1c2ccc3c1nnn3CCCOCCOc1ccc(c(F)c1)C(=O)N1CCc3ccc(cc3C1)[C@@H]2[C@H](C)C(=O)O` ? 2010

###

Test system: NQO1 activation in BEAS-2B cells
method: BEAS-2B cellular MTT assay of NQO1 activation, 0.3% HSA
Assay type: cell-based
measurement_parameters: Homo sapiens, BEAS+, read-out: BEAS+ EC50
value_type: EC50 (nM)
Give the quantity in nM, number only.

Consider the worked cases shown below.
Could you share which EC50 value was measured for Cc1c2cnc3c1nnn3CCCCCc1cc(F)c(c(F)c1)C(=O)N1CCc3ccc(cc3C1)[C@H]2CC(=O)O [Compound 139] ? 0.2

I am curious: what EC50 value has been reported for CC(C(=O)O)C1c2ccc3c(c2)CN(CC3)C(=O)c2ccc(cc2)OCCCCCn2nnc3cc1ccc32 (stereo not shown) [Compound 325] ? 4

Fill blank: measured EC50 of the molecule Cc1cc2ccc1C(=O)N1CCc3ccc(cc3C1)[C@H](CC(=O)O)c1ccc3c(c1)nnn3CCCCCCO2 [Compound 326] is ____. 804

Further cases:
Please give the measured EC50 for this molecule: Cc1c2oc3cc(ccc13)OCCCCCn1nnc3c(C)c(ccc31)C(CC(=O)O)c1ccc3c(c1)CN(CC3)C2=O (stereo not shown) [Compound 401] 7110

Suppose we examine the molecule Cc1c2cnc3c1nnn3CCCCCc1ccc(c(F)c1)C(=O)N1CCc3ccc(cc3C1)C2CC(=O)O (stereo not shown) [Compound 137] ; what EC50 value has been reported? 1.9

Record request: EC50 value, item O=C(O)C[C@@H]1c2ccc(nc2)OCCCCCc2ccc(cc2)C(=O)N2CCc3ccc1cc3C2 [Compound 173] 12.8

###

# EC50 annotations
System: NQO1 activation in BEAS-2B cells
method: BEAS-2B cellular MTT assay of NQO1 activation, 0% HSA
Format: cell-based
measurement_parameters: Homo sapiens, Serum Free W, read-out: BEAS EC50 (nM) Serum Free W
Experimental: The growth rate of the BEAS-2B cells changed based on the lot of BEGM SingleQuots in the BEGM media. The cell growth rate was determined for each lot of SingleQuots. […] Until the cell growth rate was determined, cells were seeded at different densities (cells/cm^2) in multiple tissue culture flasks in order to avoid the cells becoming more than 70% confluent. […]
# unit: nM | format: bare number

Recorded results for 4 compounds are shown here.
I'd like to know its EC50. The compound in question is `Cc1c2cnc3c1nnn3CCCCCCCc1ccc(cc1)C(=O)N1CCc3ccc(cc3C1)[C@H]2CC(=O)O` 23

Report EC50 for `Cc1cc2ncc1[C@@H]([C@H](C)C(=O)O)c1ccc3c(c1)CN(CC3)C(=O)c1ccc(cc1)C/C=C/CCO2` please. 9.7

Suppose we examine the compound `COc1cc2ccc1CCCCCCn1nnc3c(C)c(cnc31)[C@H](CC(=O)O)c1ccc3c(c1)CN(CC3)C2=O` ; what EC50 value has been reported? 53.1

What does the record list as EC50 for Cc1c2cnc3c1nnn3CCCCCc1ccc3c(c1)cc(n3C)C(=O)N1CCc3ccc(cc3C1)C2CC(=O)O (stereo not shown) ? 2.2

---
Consider the compound shown here: `Cc1cc2cnc1OCCCCCc1ccc(cc1)C(=O)N1CCc3ccc(cc3C1)[C@H]2[C@H](C)C(=O)O` What is its recorded EC50? 32.4
